- TEST TARGET: CD33 (Sino Biological, Cat #12238-H08H) (UniProt P20138 18-259)
- Sequence (P20138 18-259 limits assumed): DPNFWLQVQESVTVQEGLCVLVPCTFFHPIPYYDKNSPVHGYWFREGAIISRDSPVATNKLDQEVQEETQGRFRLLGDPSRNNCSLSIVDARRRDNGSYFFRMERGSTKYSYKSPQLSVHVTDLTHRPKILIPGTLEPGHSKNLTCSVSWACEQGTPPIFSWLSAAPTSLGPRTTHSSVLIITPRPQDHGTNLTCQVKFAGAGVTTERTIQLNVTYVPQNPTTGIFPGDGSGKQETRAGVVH
- ASSAY COMMENT: BLI, IgG captured on anti-human Fc sensor, 50 nM CD33, pH 7.4 vs pH 5.4
READOUT LABEL: binding result

>>> value_reported("MYT2667 (antibody, V domains shown, IgG; vadastuximab VL variant #15 (R53H)) VH: QVQLVQSGAEVKKPGASVKVSCKASGYTFTNYDINWVRQAPGQGLEWIGWIYPGDGSTKYNEKFKAKATLTADTSTSTAYMELRSLRSDDTAVYYCASGYEDAMDYWGQGTTVTVSS VL: DIQMTQSPSSLSASVGDRVTINCKASQDINSYLSWFQQKPGKAPKTLIYRANHLVDGVPSRFSGSGSGQDYTLTISSLQPEDFATYYCLQYDEFPLTFGGGTKVEIK")
"binds"
>>> value_reported("MYT1601 (antibody, V domains shown, IgG; gemtuzumab VL variant #12 (R35H)) VH: EVQLVQSGAEVKKPGSSVKVSCKASGYTITDSNIHWVRQAPGQSLEWIGYIYPYNGGTDYNQKFKNRATLTVDNPTNTAYMELSSLRSEDTDFYYCVNGNPWLAYWGQGTLVTVSS VL: DIQLTQSPSTLSASVGDRVTITCRASESLDNYGIHFLTWFQQKPGKAPKLLMYAASNQGSGVPSRFSGSGSGTEFTLTISSLQPDDFATYYCQQTKEVPWSFGQGTKVEVK")
"binds"
>>> value_reported("MYT1345 (antibody, V domains shown, IgG; vadastuximab VH variant #11 (W50H)) VH: QVQLVQSGAEVKKPGASVKVSCKASGYTFTNYDINWVRQAPGQGLEWIGHIYPGDGSTKYNEKFKAKATLTADTSTSTAYMELRSLRSDDTAVYYCASGYEDAMDYWGQGTTVTVSS VL: DIQMTQSPSSLSASVGDRVTINCKASQDINSYLSWFQQKPGKAPKTLIYRANRLVDGVPSRFSGSGSGQDYTLTISSLQPEDFATYYCLQYDEFPLTFGGGTKVEIK")
"binds"
